Reported pIC50 is given for each of the following compounds.
target: purified DHFR of strain 157/4696 of Staphylococcus aureus (Staphylococcus aureus, UniProt P13955); assay: biochemical
Sequence (P13955 whole entry): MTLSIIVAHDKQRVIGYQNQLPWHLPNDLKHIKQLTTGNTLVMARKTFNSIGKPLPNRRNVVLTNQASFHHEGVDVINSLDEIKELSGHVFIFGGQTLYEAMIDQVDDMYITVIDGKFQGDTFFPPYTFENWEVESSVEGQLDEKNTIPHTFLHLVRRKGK
pIC50: −log10 of the molar value.

chemical_structure: CCOc1cc(Cc2cnc(N)nc2N)cc(OC2CCC2)c1-c1cccc(N)c1
pIC50: 6.19
//
chemical_structure: CCOc1cc(Cc2cnc(N)nc2N)cc(OCCc2ccccn2)c1-c1ccc(O)cc1
pIC50: 5.89
//
chemical_structure: CCOc1cc(Cc2cnc(N)nc2N)cc(OS(=O)(=O)N(C)C)c1-c1ccc(CN2CCOCC2)c(N)c1
pIC50: 7.06
//
chemical_structure: CCOc1cc(Cc2cnc(N)nc2N)cc(OCC)c1-c1cccc(S(C)(=O)=O)c1
pIC50: 5.74
